I'd appreciate it if you could supply EC50 values for the items below.
# targetOfAssay: Muscarinic acetylcholine receptor M5 (Homo sapiens, UniProt P08912)
# Sequence (P08912 whole entry): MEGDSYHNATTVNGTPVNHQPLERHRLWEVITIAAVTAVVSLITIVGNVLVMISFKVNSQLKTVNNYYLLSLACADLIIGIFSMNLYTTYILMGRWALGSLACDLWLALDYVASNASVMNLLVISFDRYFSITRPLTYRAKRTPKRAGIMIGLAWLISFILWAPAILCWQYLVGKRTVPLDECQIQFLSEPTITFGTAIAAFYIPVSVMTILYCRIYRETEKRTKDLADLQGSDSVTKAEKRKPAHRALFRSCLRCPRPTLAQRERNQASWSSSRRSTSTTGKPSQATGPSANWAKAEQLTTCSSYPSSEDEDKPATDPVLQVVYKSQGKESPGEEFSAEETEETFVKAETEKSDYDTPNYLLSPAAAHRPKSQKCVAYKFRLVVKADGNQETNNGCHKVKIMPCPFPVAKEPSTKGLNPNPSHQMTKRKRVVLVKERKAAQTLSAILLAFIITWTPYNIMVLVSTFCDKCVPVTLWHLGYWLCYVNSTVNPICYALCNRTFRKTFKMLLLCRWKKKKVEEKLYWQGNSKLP
# assayText: Positive allosteric modulation of muscarinic M5 receptor expressed in CHO cells assessed as effect on acetylcholine-induced intracellular calcium mobilization after 1 hr by FLIPR assay
One number for each entry, in µM.

Recorded results for 3 compounds are shown here.
O=C1C(=O)N(Cc2ccc(-c3ccncc3)cc2)c2ccc(OC(F)(F)F)cc21
2.8
O=C1C(=O)N(Cc2ccc(Oc3nccs3)cc2)c2ccc(OC(F)(F)F)cc21
2.8
O=C1C(=O)N(Cc2ccc(-c3cccnc3)nc2)c2ccc(OC(F)(F)F)cc21
4

Give me EC50 for each of these compounds, listed below.
1. O=C1C(=O)N(Cc2ccc(Oc3ccccn3)cc2)c2ccc(OC(F)(F)F)cc21
2. O=C1C(=O)N(Cc2ccc(-c3ccccc3)cc2F)c2ccc(OC(F)(F)F)cc21

Response given:
[3.2, 5.9]

* * *

# targetOfAssay: Muscarinic acetylcholine receptor M5 (Homo sapiens) (UniProt P08912)
# Sequence (P08912 whole entry): as above
# assayText: Positive allosteric modulation of muscarinic M5 receptor expressed in CHO cells assessed as effect on acetylcholine-induced intracellular calcium mobilization after 1 hr by FLIPR assay relative to acetylcholine
# Type: functional, cell-based
valueKind: Emax (%)
One number for each entry, in %.

O=C1C(=O)N(Cc2ccc(-c3ccccc3)nc2)c2ccc(OC(F)(F)F)cc21
76

For each entry beneath this line, provide reported Emax.
1. O=C1C(=O)N(Cc2ccc(Oc3cccc(F)n3)cc2)c2ccc(OC(F)(F)F)cc21
2. O=C1C(=O)N(Cc2ccc(-c3cccnc3)cc2)c2ccc(OC(F)(F)F)cc21
3. O=C1C(=O)N(Cc2ccc(-c3cncnc3)cc2)c2ccc(OC(F)(F)F)cc21

Response given:
[62, 51, 53]

* * *

Can you tell me fold change (FC) for the items I'm about to list?
# targetOfAssay: Muscarinic acetylcholine receptor M5 (Homo sapiens)
# assayText: Positive allosteric modulation of muscarinic M5 receptor expressed in CHO cells assessed as potentiation of acetylcholine-induced intracellular calcium mobilization at 30 uM after 1 hr by FLIPR assay relative to acetylcholine
# Type: functional, cell-based
Numbers only.

Known results for compounds:
O=C1C(=O)N(Cc2ccc(-c3ccccc3)nc2)c2ccc(OC(F)(F)F)cc21
14
O=C1C(=O)N(Cc2ccc(-c3ccccc3)cc2)c2ccc(OC(F)(F)F)cc21
10
O=C1C(=O)N(Cc2ccc(Oc3cccc(F)n3)cc2)c2ccc(OC(F)(F)F)cc21
6

Challenge: Suppose we examine the compound O=C1C(=O)N(Cc2ccc(Oc3ccccc3)cc2)c2ccc(OC(F)(F)F)cc21 ; what fold change (FC) value has been reported?
Response given: 5

* * *

# targetOfAssay: Muscarinic acetylcholine receptor M5 (Homo sapiens)
# assayText: Positive allosteric modulation of muscarinic M5 receptor expressed in CHO cells assessed as potentiation of acetylcholine-induced intracellular calcium mobilization at 10 uM after 1 hr by FLIPR assay
# Type: functional, cell-based
Active and inactive are the calls of the source. The rule behind the calls is not given here.
valueKind: Activity

Consider the worked cases shown below.
O=C1C(=O)N(Cc2ccc(-c3ccccc3)cc2)c2ccc(OCc3cccc(OC(F)(F)F)c3)cc21
inactive
Cc1ccccc1CCOc1ccc2c(c1)C(=O)C(=O)N2Cc1ccc(-c2ccccc2)cc1
inactive
COc1cccc(COc2ccc3c(c2)C(=O)C(=O)N3Cc2ccc(-c3ccccc3)cc2)c1
inactive
Cc1ccccc1COc1ccc2c(c1)C(=O)C(=O)N2Cc1ccc(-c2ccccc2)cc1
inactive
COc1ccc2c(c1)C(=O)C(=O)N2Cc1ccc(-c2ccccc2)cc1
inactive

Can you give me Activity for all of these, one by one?
1. O=C1C(=O)N(Cc2ccc(-c3ccccc3)cc2)c2ccc(OCC3CCCCC3)cc21
2. O=C1C(=O)N(Cc2ccc(-c3ccccc3)cc2)c2ccc(OCc3ccccc3)cc21
3. O=C1C(=O)N(Cc2ccc(-c3ccccc3)cc2)c2ccc(Oc3ccccn3)cc21
4. COc1ccc(COc2ccc3c(c2)C(=O)C(=O)N3Cc2ccc(-c3ccccc3)cc2)cc1C(F)(F)F
5. O=C1C(=O)N(Cc2ccc(-c3ccccc3)cc2)c2ccc(OCc3ccc(F)cc3)cc21
6. O=C1C(=O)N(Cc2ccc(-c3ccccc3)cc2)c2ccc(OCC3CCC3)cc21

Response given:
["inactive", "inactive", "inactive", "inactive", "inactive", "inactive"]

Please state Activity for every compound in the list that follows.
1. O=C1C(=O)N(Cc2ccc(-c3ccccc3)cc2)c2ccc(OCc3ccccc3Cl)cc21
2. O=C1C(=O)N(Cc2ccc(-c3ccccc3)cc2)c2ccc(OCc3ccc(OC(F)(F)F)cc3)cc21
3. CN(C)CCOc1ccc2c(c1)C(=O)C(=O)N2Cc1ccc(-c2ccccc2)cc1
4. O=C1C(=O)N(Cc2ccc(-c3ccccc3)cc2)c2ccc(OCCc3ccccc3C(F)(F)F)cc21
5. CCOc1ccc2c(c1)C(=O)C(=O)N2Cc1ccc(-c2ccccc2)cc1
6. COc1ccccc1COc1ccc2c(c1)C(=O)C(=O)N2Cc1ccc(-c2ccccc2)cc1
7. O=C1C(=O)N(Cc2ccc(-c3ccccc3)cc2)c2ccc(OCc3cccc(Cl)c3)cc21
8. O=C1C(=O)N(Cc2ccc(-c3ccccc3)cc2)c2ccc(OCCc3ccccc3Cl)cc21

Response given:
1: inactive; 2: inactive; 3: inactive; 4: inactive; 5: inactive; 6: inactive; 7: inactive; 8: inactive
